molecular target: T1, human PD-1 expressed on cells (human, UniProt Q15116 25-288); assay: flow cytometry, SEB-activated PBMC donor three
T1 construct: whole, on cells
T1 sequence (Q15116 25-288): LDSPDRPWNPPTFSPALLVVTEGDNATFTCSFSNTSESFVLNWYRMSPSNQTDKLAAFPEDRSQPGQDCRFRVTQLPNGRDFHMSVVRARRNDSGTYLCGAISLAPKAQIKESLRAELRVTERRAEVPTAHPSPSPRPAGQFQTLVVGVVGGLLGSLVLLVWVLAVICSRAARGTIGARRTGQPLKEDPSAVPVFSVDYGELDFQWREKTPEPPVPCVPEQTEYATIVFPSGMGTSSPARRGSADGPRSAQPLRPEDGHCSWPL
READOUT: pEC50
Convention used: pEC50 is expressed as -log10 of the molar concentration.

Use the examples below as a reference point.
[[record]]
binder = "23A11 (antibody, human IgG1, V domains shown) VH: QVQLVQSGAEVKKPGSSVKVSCKASGYTFTDYSLHWVRQAPGQGLEWMGEVIPMFDTAYYAQTFQGRVTITADESTSTAYMELSSLRSEDTAVYYCAREPFTMVRGGRYYYYGMDVWGQGTTVTVSS VL: DIQMTQSPSSLSASVGDRVTITCRASQNINKNLNWYQQKPGKAPKLLIYDASNLQSGVPSRFSGSGSGTDFTLTISSLQPEDFATYYCQHSETFGQGTKVEIK"
readout = "pEC50"
recorded_value = 7.87

[[record]]
binder = "19B10 (antibody, human IgG1, V domains shown) VH: EVQLLESGGGLVQPGGSLRLSCAASGFTFSSYAMHWVRQAPGKGLEWVSGISNSGGNTYYADSVKGRFTISRDNSKNTLYLQMNSLRAEDTAVYYCARDNYYYYMDVWGKGTTVTVSS VL: DIQMTQSPSSLSASVGDRVTITCRASQSVSTWLAWYQQKPGKAPKLLIYAASNLETGVPSRFSGSGSGTDFTLTISSLQPEDFATYYCQQTYSTPYTFGQGTKLEIK"
readout = "pEC50"
recorded_value = 6.98

[[record]]
binder = "24H9 (antibody, human IgG1, V domains shown) VH: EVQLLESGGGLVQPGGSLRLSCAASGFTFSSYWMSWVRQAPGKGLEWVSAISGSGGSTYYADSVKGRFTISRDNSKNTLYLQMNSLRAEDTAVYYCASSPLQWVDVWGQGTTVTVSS VL: DIQMTQSPSSLSASVGDRVTITCRASQGISSWLAWYQQKPGKAPKLLIYSASSLQSGVPSRFSGSGSGTDFTLTISSLQPEDFATYYCQQANSFPFTFGPGTKVDIK"
readout = "pEC50"
recorded_value = 9.04


Then there is this binder:
Query: pEC50; subject: 23A8 (antibody, human IgG1, V domains shown) VH: EVQLLESGGGLVQPGGSLRLSCAASGFTFSSSAMHWVRQAPGKGLEWVSGISGSGSSTYYADSVKGRFTISRDNSKNTLYLQMNSLRAEDTAVYYCARDNNYYYYMDVWGKGTTVTVSS VL: DIQMTQSPSSLSASVGDRVTITCRASQSIGTWLAWYQQKPGKAPKLLIYAASTLRSGVPSRFSGSGSGTDFTLTISSLQPEDFATYYCQQSYSTPYTFGQGTKLEIK
8.72

Numbers sourced from patent US20230416363A1.
